- System: AXL;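 also: KINOMEscan kinase panel screen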
- CONDITION CONTEXT: concentration: 1 μM,replicates: in singlicate; n = 1
PARAMETER: %Inh (%)
Form entry: value (%) — number only.

Exercise: Give reported %Inh for O=c1[nH]cc(-c2ccc(O)cc2)c2sc(-c3ccncc3)cc12 (AXL)
Solution: 96.1

Exercise: Give reported %Inh for FC(F)(F)c1cc(Br)cc(Nc2nccc(-c3cnn4ncccc34)n2)c1 (AXL)
Solution: 3

Exercise: Give reported %Inh for Cc1n[nH]c2cc(Nc3ccnc(Nc4cccc(CN5CCOCC5)c4)n3)ccc12 (AXL)
Solution: 35

Exercise: Give reported %Inh for Nc1nccc(-c2ccc3c(N)n[nH]c3c2)n1 (AXL)
Solution: 0

Exercise: Give reported %Inh for Cn1cc(-c2cccc3c(N)c(C(N)=O)nnc23)cn1 (AXL)
Solution: 22

Exercise: Give reported %Inh for Cc1ccc(Nc2ccnc(Nc3ccc4c(c3)CS(=O)(=O)C4)n2)cc1O.Cl (AXL)
Solution: 86

Exercise: Give reported %Inh for COC(=O)c1cccc(NC(=O)NC2CCN(c3ccnc(NCc4ccc(F)cc4)n3)CC2)c1 (AXL)
Solution: 9

Exercise: Give reported %Inh for CCCC(=O)Nc1n[nH]c2ncccc12 (AXL)
Solution: 18

Exercise: Give reported %Inh for COc1cc2ncn(-c3cc(OCC4CCCCC4)c(C(N)=O)s3)c2cc1OC (AXL)
Solution: 0
